src = patent US20220010003A1

Biological target: T1, recombinant human periostin (human, UniProt Q15063 22-836)
T1 construct: also called HuPOSTN; POSTN
T1 sequence: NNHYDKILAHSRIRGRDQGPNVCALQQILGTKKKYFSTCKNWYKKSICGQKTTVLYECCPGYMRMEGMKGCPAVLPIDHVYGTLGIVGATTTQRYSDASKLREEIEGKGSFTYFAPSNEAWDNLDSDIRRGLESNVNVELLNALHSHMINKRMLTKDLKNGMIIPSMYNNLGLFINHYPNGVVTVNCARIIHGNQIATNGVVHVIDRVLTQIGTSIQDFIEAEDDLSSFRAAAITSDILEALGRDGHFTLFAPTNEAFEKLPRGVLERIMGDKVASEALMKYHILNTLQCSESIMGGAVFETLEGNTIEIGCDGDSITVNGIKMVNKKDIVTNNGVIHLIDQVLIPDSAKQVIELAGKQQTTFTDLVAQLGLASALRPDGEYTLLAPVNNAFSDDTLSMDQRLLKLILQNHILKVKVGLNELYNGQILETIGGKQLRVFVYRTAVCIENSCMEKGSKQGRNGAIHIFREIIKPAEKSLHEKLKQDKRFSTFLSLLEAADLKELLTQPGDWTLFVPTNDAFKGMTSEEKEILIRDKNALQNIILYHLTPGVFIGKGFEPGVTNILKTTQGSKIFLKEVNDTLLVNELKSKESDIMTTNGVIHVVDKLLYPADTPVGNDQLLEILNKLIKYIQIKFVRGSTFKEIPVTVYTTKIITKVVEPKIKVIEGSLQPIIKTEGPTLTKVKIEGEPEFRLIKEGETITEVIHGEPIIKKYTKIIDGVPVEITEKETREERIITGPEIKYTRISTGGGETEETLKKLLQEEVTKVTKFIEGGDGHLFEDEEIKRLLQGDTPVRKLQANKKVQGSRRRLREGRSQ
Test: binding ELISA, periostin coated
Parameter Measured: pEC50
Keep it numeric: pEC50 is minus log10 of the concentration in mol/L.

The binder NB1012 (N55S_M100I) (antibody, V domains shown, Double mutant of NB0828 (IgG4PAA parent); the isotype of the variant is not restated) VH: QVQLVQSGAEVKKPGASVKVSCKASGYTFTSYGISWVRQAPGQGLEWMGWISAYSGNTNYAQKLQGRVTMTTDTSTSTAYMELRSLRSDDTAVYYCARDILVVPFDYWGQGTLVTVSS VL: QSVLTQSSSASGTPGQTVTVSCSGSSSDIGSNRVNWYQQLPGTAPKLLIYSNDQRPSGVPDRFSGSKSGTSASLAISGLQSADEADYYCAAWDDSLSTYVFGSGTKVTVL showed pEC50 equal to 8.64
